Measured growth inhibition by item
testMethodNotes: S. cerevisiae growth inhibition in permissive medium (OD615), pilot counter-assay for S. cerevisiae lifespan shortening project, permissive growth control (AID 705)
experimentalConditions: OD615, 24 h, at 10 µM, hits give high values
Answer format: numeric, % implied, no suffix.

Past entries and their recorded results:
{"columns": ["compound", "unitSymbol", "growth inhibition"],
 "data": [
  ["CCOC(=O)Cc1nnc(NC(=O)c2ccccc2OCC)s1", "%", -9.41],
  ["O=C(CCCOc1ccc(Cl)cc1)N1CCCCC1", "%", -13.2],
  ["CCOC(=O)N1CCN(CC(=O)Nc2ccc(C)cc2)CC1", "%", -4.43]
]}

IN: Fill blank: measured growth inhibition of the compound COc1ccccc1NC(=O)C1CCCN(S(=O)(=O)c2cnc[nH]2)C1 (stereo unspecified) is ____.
OUT: 1.64

IN: Fill blank: measured growth inhibition of the compound CC(C)CCOc1cccc(C2c3c(oc4ccccc4c3=O)C(=O)N2CCCN2CCOCC2)c1 (stereo unspecified) is ____.
OUT: -3.75

IN: Fill blank: measured growth inhibition of the compound C#CCOC(=O)C1C2C=CC(C2)C1C(=O)O (stereo unspecified) is ____.
OUT: 2.87
